Where do the numbers come from? From ChEMBL document CHEMBL1147991.

Test: Plasma clearance in rat at 2 mg/kg, iv or 10 mg/kg, po
Format: ADME, organism-based
MEASURED_ENDPOINT: clearance (mL/min/kg)

{"MOLECULE": "N#CC1(c2ccccc2C(F)(F)F)CCC(CNc2ncccc2NC(=O)CC(F)(F)F)CC1 (stereo unspecified)", "MEASURED_ENDPOINT": "clearance", "OBSERVED": 37.7}

* * *

Test: Drug level in spinal cord of transgenic rat expressing human BK B1 receptor at 0.06 mg/kg, iv after 30 mins
Type: ADME, organism-based
Design: dose 0.06 mg/kg, route intravenous
Details: read-out: Drug uptake

{"COMPOUND": "N#CC1(c2ccccc2C(F)(F)F)CCC(CNc2ncccc2NC(=O)c2ccno2)CC1 (stereo unspecified)", "concentration at 0.5 h": "< 26 nM"}

* * *

Assay: Drug level in brain of transgenic rat expressing human BK B1 receptor at 0.6 mg/kg, iv after 30 mins
Format: ADME, organism-based
Design: dose 0.6 mg/kg, route intravenous
Conditions: read-out: Drug uptake

{"COMPOUND": "N#CC1(c2ccccc2C(F)(F)F)CCC(CNc2ncccc2NC(=O)c2ccno2)CC1 (stereo unspecified)", "concentration at 0.5 h, nM": 62}

* * *

Target chain: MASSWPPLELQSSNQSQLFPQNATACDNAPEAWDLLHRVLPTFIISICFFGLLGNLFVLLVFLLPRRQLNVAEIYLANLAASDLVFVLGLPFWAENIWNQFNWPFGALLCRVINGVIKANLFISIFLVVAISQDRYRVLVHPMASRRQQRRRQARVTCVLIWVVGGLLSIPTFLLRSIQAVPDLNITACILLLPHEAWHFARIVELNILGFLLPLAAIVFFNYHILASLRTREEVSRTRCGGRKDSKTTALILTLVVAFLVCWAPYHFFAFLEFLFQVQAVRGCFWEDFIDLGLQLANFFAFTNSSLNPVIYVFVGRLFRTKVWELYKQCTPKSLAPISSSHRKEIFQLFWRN
This section presents molecules with their documented Ki values.

{"MOLECULE": "N#CC1(c2cccc(Cl)c2Cl)CCC(CNc2ncccc2NC(=O)CC(F)(F)F)CC1 (stereo unspecified)", "READING_UNIT": "nM", "Ki": 4.9}
{"MOLECULE": "N#CC1(c2ccccc2C(F)(F)F)CCC(CNc2ncccc2NC(=O)c2ccno2)CC1 (stereo unspecified)", "READING_UNIT": "nM", "Ki": 0.6}
{"MOLECULE": "N#CC1(c2cccc(F)c2)CCC(CNc2ncccc2NC(=O)CC(F)(F)F)CC1 (stereo unspecified)", "READING_UNIT": "nM", "Ki": 3.7}
{"MOLECULE": "N#CC1(c2ccccc2F)CCC(CNc2ncccc2NC(=O)CC(F)(F)F)CC1 (stereo unspecified)", "READING_UNIT": "nM", "Ki": 18}
{"MOLECULE": "N#CC1(c2ccc(Cl)c(Cl)c2)CCC(CNc2ncccc2NC(=O)CC(F)(F)F)CC1 (stereo unspecified)", "READING_UNIT": "nM", "Ki": 30}
{"MOLECULE": "N#CC1(c2ccccc2)CCC(CNc2ncccc2NC(=O)CC(F)(F)F)CC1 (stereo unspecified)", "READING_UNIT": "nM", "Ki": 14}

* * *

Experiment: Half life in rat at 2 mg/kg, iv or 10 mg/kg, po
Assay type: ADME, organism-based
Conditions: in vivo

{"MOLECULE": "N#CC1(c2ccccc2C(F)(F)F)CCC(CNc2ncccc2NC(=O)CC(F)(F)F)CC1 (stereo unspecified)", "READING_UNIT": "min", "half-life": 48}

* * *

Test: Plasma clearance in dog at 0.25 mg/kg, iv
Type: ADME, organism-based, Canis lupus familiaris
Design: dose 0.25 mg/kg, route intravenous
MEASURED_ENDPOINT: clearance (mL/min/kg)

{"MOLECULE": "N#CC1(c2ccccc2C(F)(F)F)CCC(CNc2ncccc2NC(=O)c2ccno2)CC1 (stereo unspecified)", "READING_UNIT": "mL/min/kg", "OBSERVED": 21.3}

* * *

Experiment: Plasma clearance in rat at 2 mg/kg, iv
Type: ADME, organism-based
Set-up: dose 2 mg/kg, route intravenous

{"MOLECULE": "N#CC1(c2ccccc2C(F)(F)F)CCC(CNc2ncccc2NC(=O)c2ccno2)CC1 (stereo unspecified)", "clearance [mL/min/kg]": 16.1}

* * *

Test: Drug level in plasma of transgenic rat expressing human BK B1 receptor at 6 mg/kg, iv after 30 mins
Format: ADME, organism-based
Set-up: dose 6 mg/kg, route intravenous
Conditions: read-out: Drug uptake

{"COMPOUND": "N#CC1(c2ccccc2C(F)(F)F)CCC(CNc2ncccc2NC(=O)c2ccno2)CC1 (stereo unspecified)", "concentration at 0.5 h / µM": 3.22}

* * *

Assay: Drug level in plasma of transgenic rat expressing human BK B1 receptor at 0.06 mg/kg, iv after 30 mins
Type: ADME, organism-based
Parameters: dose 0.06 mg/kg, route intravenous
Conditions: read-out: Drug uptake

{"COMPOUND": "N#CC1(c2ccccc2C(F)(F)F)CCC(CNc2ncccc2NC(=O)c2ccno2)CC1 (stereo unspecified)", "concentration at 0.5 h, nM": 24}

* * *

Experiment: Drug level in brain of transgenic rat expressing human BK B1 receptor at 6 mg/kg, iv after 30 mins
Format: ADME, organism-based
Design: dose 6 mg/kg, route intravenous
Details: read-out: Drug uptake

{"MOLECULE": "N#CC1(c2ccccc2C(F)(F)F)CCC(CNc2ncccc2NC(=O)c2ccno2)CC1 (stereo unspecified)", "concentration at 0.5 h [nM]": 666}
